# experimental-target: Hck (UniProt P08631)
# Sequence (P08631 whole entry, looked up): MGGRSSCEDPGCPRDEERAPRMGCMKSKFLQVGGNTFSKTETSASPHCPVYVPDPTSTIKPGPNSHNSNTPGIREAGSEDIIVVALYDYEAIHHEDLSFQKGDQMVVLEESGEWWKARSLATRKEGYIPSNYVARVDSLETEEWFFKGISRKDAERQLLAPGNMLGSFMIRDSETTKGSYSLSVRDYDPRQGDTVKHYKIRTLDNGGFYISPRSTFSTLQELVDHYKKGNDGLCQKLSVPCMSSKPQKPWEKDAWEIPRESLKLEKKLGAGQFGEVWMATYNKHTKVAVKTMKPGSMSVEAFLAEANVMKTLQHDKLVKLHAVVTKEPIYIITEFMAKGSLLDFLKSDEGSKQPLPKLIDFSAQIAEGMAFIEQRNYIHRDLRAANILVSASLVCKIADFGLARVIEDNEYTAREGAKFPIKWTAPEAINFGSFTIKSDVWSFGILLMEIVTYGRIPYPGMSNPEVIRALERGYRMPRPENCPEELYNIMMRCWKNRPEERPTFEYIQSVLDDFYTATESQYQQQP
# assay-remarks: phosphorylation enrichment, bacterial display (enrichment ratio); higher = better substrate or ligand; peptides without Tyr show the background;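 also: 11-residue human phosphosite peptides and single-mutation variants displayed on the E. coli surface, counted by deep sequencing, each peptide's frequency after selection divided by its frequency in the unselected input library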;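 also: frequency after pTyr selection over input frequency; kinase dosed for 20-30% of maximal phosphorylation in three min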
Below, each entry is listed with its recorded phosphorylation enrichment.

Worked examples, 10 sequences total:
# phosphorylation enrichment of ATGGFYSFGGG [KRT24_Y120_YF] = 1.83

Record PPGRSYSPFDF [TNS1_Y793_YF] . Reported phosphorylation enrichment: 0.6

Noted for LADKPYTFEFF [FXN_Y118_D122Y_YF] : its phosphorylation enrichment reads 0.644

Kindly note the recorded phosphorylation enrichment for PSQRRYLFFFS [PTEN_Y174_V175L_YF] , which is 0.716

phosphorylation enrichment in this record for SRDDFYETIAM [NPY1R_Y347_D346Y_YF] : 2.04

EGWQVYRLGAR [MISP_Y95] yielded phosphorylation enrichment of 1.12

Entry IHHIDYYKETT [FGFR1_Y653_K656E] ; phosphorylation enrichment = 0.471

phosphorylation enrichment recorded for this sequence, SNFRAYATEPH [TNNI3_Y29_YF] , is 0.441

Briefly, phosphorylation enrichment measured for NTGGYYDLYGG [PTPN11_Y63_D61G] : 8.38

Entry QKKPCYEIRWK [PDGFRB_Y562_R561C] ; phosphorylation enrichment = 1.02

Turning now to a further sequence:
What the record says about LVMFISAIFGM [SCN1A_Y1684_Y1684S] : phosphorylation enrichment is 0.804

* * *

# experimental-target: FGFR1 (UniProt P11362)
# Sequence (P11362 whole entry, looked up): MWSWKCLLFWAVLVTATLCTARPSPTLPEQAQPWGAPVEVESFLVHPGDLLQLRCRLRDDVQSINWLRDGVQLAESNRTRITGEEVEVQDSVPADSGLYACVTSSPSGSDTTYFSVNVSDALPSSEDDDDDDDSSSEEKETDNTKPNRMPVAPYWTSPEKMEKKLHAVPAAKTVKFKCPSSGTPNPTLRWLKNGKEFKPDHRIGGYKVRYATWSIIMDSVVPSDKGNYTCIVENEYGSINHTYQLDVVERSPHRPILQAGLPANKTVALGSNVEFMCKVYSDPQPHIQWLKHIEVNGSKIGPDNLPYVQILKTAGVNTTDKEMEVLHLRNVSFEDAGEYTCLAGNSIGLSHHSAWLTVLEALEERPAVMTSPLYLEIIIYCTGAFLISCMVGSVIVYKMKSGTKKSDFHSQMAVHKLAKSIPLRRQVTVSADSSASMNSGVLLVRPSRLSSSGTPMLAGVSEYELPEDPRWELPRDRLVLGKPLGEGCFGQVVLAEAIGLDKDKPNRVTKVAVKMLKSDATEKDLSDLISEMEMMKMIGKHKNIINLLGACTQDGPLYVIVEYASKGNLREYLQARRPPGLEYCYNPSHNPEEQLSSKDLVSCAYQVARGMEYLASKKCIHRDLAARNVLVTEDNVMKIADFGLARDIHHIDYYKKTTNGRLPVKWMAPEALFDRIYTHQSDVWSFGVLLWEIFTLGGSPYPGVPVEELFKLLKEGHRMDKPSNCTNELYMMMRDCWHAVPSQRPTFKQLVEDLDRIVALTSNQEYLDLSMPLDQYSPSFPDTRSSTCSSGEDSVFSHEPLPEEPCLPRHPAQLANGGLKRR
# assay-remarks: phosphorylation enrichment, bacterial display (enrichment ratio); higher = better substrate or ligand; peptides without Tyr show the background
quantity-kind: phosphorylation enrichment
Keep the answer to the number alone.

Observe how each entry below is paired with its result.
Measured phosphorylation enrichment, CDIPRYIVSQL [MAST2_Y461] : 0.497

Kindly note the recorded phosphorylation enrichment for ADRSCYDLSCR [GARS1_Y467_H472R] , which is 0.499

Per the records, this sequence ( LERFIYNRQEF [HLA-DPB1_Y59_E62Q_YF] ) has phosphorylation enrichment equal to 0.491

Per the records, this sequence ( KFDLMYAKCAF [TUBA1A_Y399_R402C] ) has phosphorylation enrichment equal to 0.491

Given item EGWQVYRLGAR [MISP_Y95] , the value recorded as its phosphorylation enrichment is 0.5

Below: the item to evaluate.
Entry GYRVCYTPDSR [PTPRF_Y451_Y450C] — recorded phosphorylation enrichment = 0.492

* * *

# Test system: Fer (mouse)
# assay-remarks: phosphorylation enrichment, bacterial display (enrichment ratio); higher = better substrate or ligand; peptides without Tyr show the background
quantity-kind: phosphorylation enrichment
Reply with just the number.

The following sequences have reported results that may help.
The sequence listed as HRGCLYLAIEF [TEK_Y899_Y897C_YF] shows phosphorylation enrichment equal to 0.511

Noted for FDDGKYVFVVT [RPS6KA3_Y488_YF] : its phosphorylation enrichment reads 0.513

Others:
phosphorylation enrichment reported for this sequence REAAAYLHGRL [AGXT_Y297] : 0.502

Entry under test: KSMSVYCTPNK [ATP2A2_Y497] . Its phosphorylation enrichment was 0.509

Looking up SGSIHYSHVPR [GLB1_Y57_R59H] , I see its phosphorylation enrichment listed as 0.606

* * *

# System: Fer (mouse)
# assay-remarks: phosphorylation enrichment, bacterial display (enrichment ratio); higher = better substrate or ligand; peptides without Tyr show the background
quantity-kind: phosphorylation enrichment
Give a plain numeric answer without units written out.

# phosphorylation enrichment (sequence: PQIVNYSPDCI [LDHB_Y128_K127N] ) is 0.83

Next:
# sequence KLIETYFSKNF [PLP1_Y50_YF] ; its phosphorylation enrichment = 0.4

* * *

# experimental-target: Hck (UniProt P08631)
# assay-remarks: phosphorylation enrichment, bacterial display (enrichment ratio); higher = better substrate or ligand; peptides without Tyr show the background
quantity-kind: phosphorylation enrichment

Known results for sequences:
Kindly note the recorded phosphorylation enrichment for ILTLKYPIERG [ACTA1_Y71_H75R] , which is 0.49

Per the record, RSSNTYTLMDV [ALCAM_Y298_T301M] has phosphorylation enrichment of 0.676

So for QKPLDYFRVNL [GALE_Y104_YF] , the logged phosphorylation enrichment turned out to be 0.647

Short answer for GACGGYCSVLG [RAB18_Y202] : phosphorylation enrichment was 0.392

# phosphorylation enrichment (sequence: LFSINYLHFGE [KDM4C_Y201_YF] ) is 0.65

As a next step, examine the sequence that follows.
phosphorylation enrichment for PADCRYFTFPQ [GAMT_Y222_A224T_YF] is 0.761

* * *

# experimental-target: FGFR3 (UniProt P22607)
# Sequence (P22607 whole entry, looked up): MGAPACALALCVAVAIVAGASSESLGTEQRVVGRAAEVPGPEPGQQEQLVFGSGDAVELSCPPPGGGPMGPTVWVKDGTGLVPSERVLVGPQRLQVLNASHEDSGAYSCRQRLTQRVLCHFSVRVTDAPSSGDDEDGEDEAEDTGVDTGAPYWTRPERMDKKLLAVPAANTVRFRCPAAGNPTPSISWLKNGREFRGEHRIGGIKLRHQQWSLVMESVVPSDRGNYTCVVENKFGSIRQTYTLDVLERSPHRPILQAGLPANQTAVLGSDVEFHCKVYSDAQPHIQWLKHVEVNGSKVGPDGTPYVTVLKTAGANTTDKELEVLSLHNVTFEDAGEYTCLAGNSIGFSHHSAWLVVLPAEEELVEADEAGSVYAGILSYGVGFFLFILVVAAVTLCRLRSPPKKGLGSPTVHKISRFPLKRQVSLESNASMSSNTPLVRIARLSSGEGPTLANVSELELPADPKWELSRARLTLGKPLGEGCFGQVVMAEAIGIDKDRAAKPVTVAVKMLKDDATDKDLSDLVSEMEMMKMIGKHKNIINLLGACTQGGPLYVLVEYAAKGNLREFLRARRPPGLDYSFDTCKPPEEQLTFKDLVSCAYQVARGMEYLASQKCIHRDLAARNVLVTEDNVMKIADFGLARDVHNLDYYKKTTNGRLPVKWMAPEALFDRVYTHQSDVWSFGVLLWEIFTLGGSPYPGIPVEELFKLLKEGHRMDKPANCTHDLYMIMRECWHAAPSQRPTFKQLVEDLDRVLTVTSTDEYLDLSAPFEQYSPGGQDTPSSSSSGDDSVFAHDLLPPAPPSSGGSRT
# assay-remarks: phosphorylation enrichment, bacterial display (enrichment ratio); higher = better substrate or ligand; peptides without Tyr show the background
Answer 0.0 if phosphorylation enrichment is under 0.7, and 1.0 if it is 0.7 or more.

Below are worked cases with known answers.
hey, is phosphorylation enrichment for this one >= 0.7? PPGRSYSPFDF [TNS1_Y793_YF] 1.0

// inclusive: phosphorylation enrichment at least 0.7? input: YEEDSYVTRSQ [RET_Y905_K907T] 1.0

More entries:
Is the recorded value of phosphorylation enrichment equal to or greater than 0.7 for this sequence? VVEYGYEFFAK [PPP1CB_Y254_D252Y] 1.0

Please indicate if the recorded phosphorylation enrichment for AFLLLYFNDTH [BMP15_Y235] meets or exceeds 0.7. 1.0

* * *

# System: AncSZ
# assay-remarks: phosphorylation enrichment, bacterial display (enrichment ratio); higher = better substrate or ligand; peptides without Tyr show the background
Everything with phosphorylation enrichment lower than 2 is FALSE; everything else, including exactly 2, is TRUE.

Worked set:
Please check the record SVTCTYSPAIN [TP53_Y126_L130I] and state if its phosphorylation enrichment is at or above 2. FALSE

API: above_or_equal(metric=phosphorylation enrichment, cutoff=2) for item LSIQCYLRALD [HMGCS2_Y262] TRUE

Please indicate if the recorded phosphorylation enrichment for FSMGCYEIFLG [HMGCL_Y198_S201Y_YF] meets or exceeds 2. TRUE

State whether the measured phosphorylation enrichment reaches 2, counting equality as reaching it, for PFTDPYFDFEI [ZC3H18_Y371_A368T_YF] TRUE

Now examine the next entry.
Is the recorded value of phosphorylation enrichment equal to or greater than 2 for this sequence? RLLVVYPWNQR [HBB_Y36_T39N] FALSE

* * *

Examples of sequences with documented phosphorylation enrichment follow.
# System: c-Src
# assay-remarks: phosphorylation enrichment, bacterial display (enrichment ratio); higher = better substrate or ligand; peptides without Tyr show the background
Answer with a number only.

Consider the reported phosphorylation enrichment for these sequences:
The reported phosphorylation enrichment of the sequence FDDGKYVFVVT [RPS6KA3_Y488_YF] was 0.507

Lab note: YPPTHYIRRVP [SLC4A11_Y820] gave phosphorylation enrichment of 0.449

Reported phosphorylation enrichment for HKLSYYEYDFE [BTK_Y40] was 2.48

Lookup result for SLNEEYTKNKT [MSH2_Y563] ; measured phosphorylation enrichment: 0.426

According to the records, this sequence RAILLYEFVGK [NATD1_Y45_V42I_YF] displays phosphorylation enrichment of 12.3

// phosphorylation enrichment value for EQKKYYNAVKK [SCN5A_Y1495_M1498V] : 0.476

Given item SHMVNYQPYRK [TEX37_Y25_D24N] , the value recorded as its phosphorylation enrichment is 0.401

Quick note, phosphorylation enrichment for AHLTEYLSTHY [UQCRC1_Y219_D215H] landed at 0.453

Continuing:
Data point: HTEGEYSSLEH [IDH3B_Y171_Q166H] ; phosphorylation enrichment = 1.02

The sequence listed as PRPACYPSTVS [CACNA1C_Y1832_G1831C] has a reported phosphorylation enrichment of 0.484

get_value(item= SDYYAYSPVRE [H6PD_Y449] , readout=phosphorylation enrichment) returns 7.18

Noted for EQYELYCEMGS [CBL_Y371] : its phosphorylation enrichment reads 4.14

Entry SGSIHYSHVPR [GLB1_Y57_R59H] , phosphorylation enrichment reported as 0.383

Please fill in: phosphorylation enrichment reported for SVTCTFSPALN [TP53_Y126_Y126F] = 0.541

* * *

# experimental-target: MERTK (UniProt Q12866)
# Sequence (Q12866 whole entry, looked up): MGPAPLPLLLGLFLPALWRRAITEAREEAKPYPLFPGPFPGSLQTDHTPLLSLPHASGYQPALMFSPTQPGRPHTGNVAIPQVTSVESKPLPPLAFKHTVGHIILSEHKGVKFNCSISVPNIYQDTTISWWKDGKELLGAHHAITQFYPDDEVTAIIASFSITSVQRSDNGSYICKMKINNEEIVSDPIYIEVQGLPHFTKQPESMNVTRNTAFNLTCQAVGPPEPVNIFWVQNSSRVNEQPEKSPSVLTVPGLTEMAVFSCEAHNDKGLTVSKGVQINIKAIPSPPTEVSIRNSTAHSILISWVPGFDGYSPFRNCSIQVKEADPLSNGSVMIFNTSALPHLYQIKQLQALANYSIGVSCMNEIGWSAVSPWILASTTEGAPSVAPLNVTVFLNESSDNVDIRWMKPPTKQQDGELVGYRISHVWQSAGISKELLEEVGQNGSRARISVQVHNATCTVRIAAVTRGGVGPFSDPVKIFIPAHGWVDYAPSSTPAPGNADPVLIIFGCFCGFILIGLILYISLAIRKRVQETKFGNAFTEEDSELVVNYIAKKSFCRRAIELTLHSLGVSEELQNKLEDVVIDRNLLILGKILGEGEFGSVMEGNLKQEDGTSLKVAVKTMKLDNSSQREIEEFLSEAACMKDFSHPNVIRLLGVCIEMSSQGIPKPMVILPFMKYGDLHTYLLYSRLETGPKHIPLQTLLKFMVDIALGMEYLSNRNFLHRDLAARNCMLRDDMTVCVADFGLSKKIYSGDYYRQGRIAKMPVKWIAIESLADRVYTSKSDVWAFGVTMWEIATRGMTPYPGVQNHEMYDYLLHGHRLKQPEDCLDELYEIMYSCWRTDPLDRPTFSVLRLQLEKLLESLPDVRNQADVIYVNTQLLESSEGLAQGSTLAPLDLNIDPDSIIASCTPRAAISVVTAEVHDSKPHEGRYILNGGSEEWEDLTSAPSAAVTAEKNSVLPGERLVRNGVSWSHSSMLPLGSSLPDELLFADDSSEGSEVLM
# assay-remarks: phosphorylation enrichment, bacterial display (enrichment ratio); higher = better substrate or ligand; peptides without Tyr show the background
quantity-kind: phosphorylation enrichment
Just the number.

// phosphorylation enrichment value for QKPLDYFRVNL [GALE_Y104_YF] : 0.647

Data point: PKGTGCIKTEL [STAT1_Y701_Y701C] ; phosphorylation enrichment = 0.74

RMETEYGPSVT [MXRA5_Y2717] has a reported phosphorylation enrichment of 0.54

According to the records, this sequence SGSIHYSHVPR [GLB1_Y57_R59H] displays phosphorylation enrichment of 0.425

For this sequence ( VLTPKYRGGGG [HBA1_Y141_S139P] ), measured phosphorylation enrichment is 0.35

Record summary for PLQKIYNYNVL [SLC4A1_Y553_T552I] : reported phosphorylation enrichment = 1.09

Reported phosphorylation enrichment for TTPAVYARVAK [CTRB2_Y246] was 0.529

Lookup result for HPHECYAKVFD [ALB_Y394_D389H] ; measured phosphorylation enrichment: 0.764

Could you now consider this next sequence?
Record IDAICYFRMEN [NPHS2_Y194_YF] , field phosphorylation enrichment: 0.556
